tested on: antibodies to HCV; assay: Peptide ELISA for relative immunoreactivity, 8 member HCV serum panel (Panel I); type: binding, human; settings: NS-3 peptides (Tables 4B-4D), relative to pep3 (279A)
Measured % Relative Immunoreactivity, listed per entry.
I only need the number, in %, no unit after it.

Example entries begin here.
>  <molecule>
HLHAPTGSGKSTKVPAAYAAQGYKVLVLNPSVAATLGFGAYMSKAHGIDPNIRTGVRTITTGSPITYSTYGKFLADGGCSGGAYDIIICDECHS (peptide) HLHAPTGSGKSTKVPAAYAAQGYKVLVLNPSVAATLGFGAYMSKAHGIDPNIRTGVRTITTGSPITYSTYGKFLADGGCSGGAYDIIICDECHS

>  <experimentalValue>
9.6

$$$$
>  <molecule>
AHGIDPNIRTGVRTITTGSPITYSTYGKFLADGGCSGGAYDIIICDECHSTDATSILGIGTVLDQAETAGARLVVLATATPPGSVTVPHPNIEEVAL (peptide) AHGIDPNIRTGVRTITTGSPITYSTYGKFLADGGCSGGAYDIIICDECHSTDATSILGIGTVLDQAETAGARLVVLATATPPGSVTVPHPNIEEVAL

>  <experimentalValue>
3.9

$$$$

Now consider the entry below.
May I ask what % Relative Immunoreactivity has been recorded for TVLDQAETAGARLVVLATATPPGSVTVPHPNIEEVALSTTGEIPFYGKAIPLEVIKGGRHLIFCHSKKKCDEL (peptide) TVLDQAETAGARLVVLATATPPGSVTVPHPNIEEVALSTTGEIPFYGKAIPLEVIKGGRHLIFCHSKKKCDEL ?
15.8
